Tested on: A498 renal
Assay: NCI tumour cell line growth inhibition, 48 h
Below, each of the compounds is paired with its reported TGI value.

{"COMPOUND": "C/C(=N/NC(=S)Nc1cccc(Cl)c1)c1cccc(/C(C)=N\\NC(=S)Nc2cccc(Cl)c2)n1", "MEASUREMENT_TARGET": "A498 renal", "OBSERVED_RESULT": "> 100 µM"}

[Q] Please look up its TGI: `COc1ccc(CNCCCN2C(=O)c3ccc4c5c(ccc(c35)C2=O)C(=O)N(CCCNCCCCNCCCN)C4=O)c(OC)c1OC`
[A] 23.1 µM

[Q] Entry to check: `Cc1cc(C)c(S(=O)(=O)Oc2ccccc2[N+](=O)[O-])c(C)c1`
[A] 12.5 µM

[Q] Another compound: CCC1(c2ccncc2)CCC(=O)NC1=O (configuration not stated)
[A] > 100 µM

[Q] Please do the same for `C=C(C)[C@@H]1CC[C@]2(c3ncc(C)o3)CC[C@]3(C)[C@H](CC[C@@H]4[C@@](C)(CCC#N)[C@H](C(=C)C)CC[C@]43C)[C@@H]12` as well.
[A] 27.8 µM

[Q] Follow-up item: `Cc1occc1C(=S)Nc1ccc(Cl)c(C(=O)OCC2CC2)c1`
[A] > 100 µM

[Q] Here is the next compound: `Cc1cc(Cl)ccc1OCC(=O)Oc1c(Cl)c(Cl)c(Cl)c(Cl)c1Cl`
[A] 62.9 µM

[Q] Then this compound: `CN(C)c1ncc(-c2c[nH]c3ccccc23)nc1-c1c[nH]c2ccccc12`
[A] 4.56 µM

[Q] Quick one: CC(=O)C1C(=O)C(=O)N(c2ccc(Cl)cc2C)C1=O (configuration not stated)
[A] > 100 µM

[Q] Next record, please: `O=C1c2ccccc2C(=O)c2c1c(NCCNCCO)c1cc[nH]c1c2NCCNCCO`
[A] 32.9 µM

[Q] Also `CCOP(=O)(C/C(=N/NC(C)(C)C)C(=O)Nc1nc2ccc(C)cc2s1)OCC` ?
[A] > 100 µM

[Q] Same read-out for `N=c1nc(N)nc(N)n1-c1ccc(S(N)(=O)=O)cc1` ?
[A] > 100 µM

[Q] And for COc1cc2c(C#N)n3c(c2cc1OC)C(=O)C(c1ccccc1)Oc1ccccc1-3 (configuration not stated) ?
[A] 9.15 µM

[Q] Here is the next compound: `CCOc1ccc2c(-c3ccnc(Nc4cccc(C(F)(F)F)c4)n3)cnn2n1`
[A] > 25 µM

[Q] Now the same for `Cc1ccc2c(c1)C(=O)C1(C2)Cc2ccc(C)cc2C1=O`
[A] > 100 µM

[Q] Same question for O=C(Nc1ccccc1)N1CC(CN2CCN(c3ccccc3)CC2)OC1=O (configuration not stated) please.
[A] > 100 µM

[Q] Entry to check: `Nc1nc(Cl)cc(NCCCCO)n1`
[A] > 100 µM

[Q] Let us now turn to CCC1N2CCCCC2[C@@H]2c3[nH]c4ccccc4c3CCN12 (some centres not stated)
[A] > 100 µM

[Q] Further, for `CCCCCCCCCCSS(=O)(=O)c1ccc(C)cc1` ?
[A] 35 µM

[Q] Request: `COc1ccc(Oc2nc3cc(C(F)(F)F)ccc3nc2C(C)C)cc1`
[A] 58.3 µM

[Q] Next record, please: `COc1ccc(/C=C/c2cc(=O)cc(/C=C/c3ccc(OC)c(O)c3)o2)cc1O`
[A] 9.43 µM

[Q] Continue with `O=S(O)CCCCSSCCCCS(=O)(O)=S`
[A] > 100 µM

[Q] Now consider N#CC1(C#N)C(c2ccccc2)NC23CCCCC2C1(C#N)C(=O)N3 (configuration not stated) .
[A] > 100 µM

[Q] And `Nc1nonc1-c1noc(-c2nonc2N)[n+]1[O-]` ?
[A] > 100 µM
